tested on: T. cruzi epimastigotes; test: T. cruzi epimastigote drug sensitivity assay (resazurin); type: cell-based, Trypanosoma cruzi; conditions: Trypanosoma cruzi, resistant clone IV; Fig. 2B, one biological replicate; read-out: EC50
Recorded Metric: EC50 (µM)

>  <Molecule Smiles>
COc1ccc(NS(=O)(=O)c2cc(-c3cc(C)n[nH]3)ccc2C)cc1OC

>  <Measured Number>
11

$$$$

----------
Tested on: T. cruzi epimastigotes
Experiment: T. cruzi epimastigote drug sensitivity assay (resazurin)
Type: cell-based, Trypanosoma cruzi
Conditions: Trypanosoma cruzi, epimastigotes, cell line cTcME OE; weighted mean, n ≥ 3; read-out: ATR-073 EC50 values
Method: To examine the effects of test compounds on the growth of T. cruzi epimastigotes, mid-log-phase parasites were seeded into 96-well plates at a cell density of 5 × 10^5 cells ml^−1. Cells were exposed to test compounds over a range of concentrations (2-fold serial dilutions). Cells were incubated for 4 days, and then 20 μl of 2.5 mM resazurin was added to each well, before measuring the fluorescence (excitation, 528 nm; emission, 590 nm), following a further 24 h of incubation. […]
Recorded Metric: EC50 (µM)

>  <Compound>
CCC(C)NC(=O)c1ccccc1NS(=O)(=O)c1ccc2ccccc2c1 (stereo not shown)

>  <Assay System>
T. cruzi epimastigotes

>  <Scale Unit>
µM

>  <Measured Number>
32

$$$$
